FYI, the data here is from patent US20240025887A1.

Molecular target: UniProt:O14965
Sequence (O14965 1-403): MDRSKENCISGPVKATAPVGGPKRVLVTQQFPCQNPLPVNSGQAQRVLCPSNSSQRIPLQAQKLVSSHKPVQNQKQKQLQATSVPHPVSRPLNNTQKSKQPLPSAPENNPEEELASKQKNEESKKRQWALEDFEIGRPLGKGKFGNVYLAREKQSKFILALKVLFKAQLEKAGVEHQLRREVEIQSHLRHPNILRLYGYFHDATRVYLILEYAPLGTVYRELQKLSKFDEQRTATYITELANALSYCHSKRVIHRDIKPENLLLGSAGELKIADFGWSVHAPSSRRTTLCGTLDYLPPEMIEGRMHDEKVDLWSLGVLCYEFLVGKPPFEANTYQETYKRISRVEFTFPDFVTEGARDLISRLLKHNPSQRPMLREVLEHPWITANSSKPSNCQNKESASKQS
Each entry below carries its recorded IC50.
REPORTED_PROPERTY: IC50

INSERT INTO results (molecule, reported_property, experimental_result) VALUES
  ('Cc1csc(Nc2nc(Nc3ccc(N4CCN(C)CC4)cc3OC(F)F)ncc2Cl)c1C(N)=O [Compound I-15]', 'IC50', '101 to 1000 nM'),
  ('CN1CCN(c2ccc(Nc3ncc(C#N)c(Nc4ccsc4C(N)=O)n3)c(OC(F)F)c2)CC1 [Compound I-38]', 'IC50', '101 to 1000 nM'),
  ('CN1C[C@H]2C[C@@H]1CN2c1ccc(Nc2ncc(Cl)c(Nc3sccc3C(N)=O)n2)c(OC(F)F)c1 [Compound I-18]', 'IC50', '101 to 1000 nM'),
  ('CNC(=O)c1sccc1Nc1nc(Nc2ccc(N3CCN(C)CC3)cc2OC(F)F)ncc1Cl [Compound I-7]', 'IC50', '101 to 1000 nM'),
  ('C[C@H]1CN(C2CCN(c3ccc(Nc4ncc(C(F)(F)F)c(Nc5ccsc5C(N)=O)n4)c(OC(F)F)c3)CC2)CCN1C [Compound I-68]', 'IC50', '101 to 1000 nM'),
  ('NC(=O)c1sccc1Nc1nc(Nc2ccc(N3CCCC3)cc2OC(F)F)ncc1Cl [Compound I-28]', 'IC50', '101 to 1000 nM'),
  ('NC(=O)c1sccc1Nc1nc(Nc2ccc(N3CCN4CCC[C@@H]4C3)cc2OC(F)F)ncc1Cl [Compound I-44]', 'IC50', '101 to 1000 nM'),
  ('CN1C[C@@H]2CN(c3ccc(Nc4ncc(Cl)c(Nc5ccsc5C(N)=O)n4)c(OC(F)F)c3)C[C@@H]2C1 [Compound I-57]', 'IC50', '101 to 1000 nM'),
  ('CN1CCN(c2ccc(Nc3ncc(Cl)c(Nc4ccsc4C(N)=O)n3)c(OC(F)(F)F)c2)CC1 [Compound I-10]', 'IC50', '> 1000 nM'),
  ('NC(=O)c1sccc1Nc1nc(Nc2ccc(N3CCC(O)CC3)cc2OC(F)F)ncc1Cl [Compound I-60]', 'IC50', '11 to 100 nM'),
  ('CCN1CCN(C2CCN(c3ccc(Nc4ncc(Cl)c(Nc5ccsc5C(N)=O)n4)c(OC(F)F)c3)CC2)CC1 [Compound I-61]', 'IC50', '11 to 100 nM'),
  ('COc1cc(N2CCN(C)CC2)ccc1Nc1ncc(Cl)c(Nc2ccsc2C(N)=O)n1 [Compound C-1, reference compound]', 'IC50', '11 to 100 nM'),
  ('CN1CCN(c2ccc(Nc3ncc(Cl)c(Nc4sccc4C(N)=O)n3)c(OC(F)(F)F)c2)CC1 [Compound I-19]', 'IC50', '> 1000 nM'),
  ('CC(C)(C)N1CCN(C2CCN(c3ccc(Nc4ncc(Cl)c(Nc5ccsc5C(N)=O)n4)c(OC(F)F)c3)CC2)CC1 [Compound I-63]', 'IC50', '101 to 1000 nM'),
  ('NC(=O)c1sccc1Nc1nc(Nc2ccc(N3CCN(CC(F)(F)F)CC3)cc2OC(F)F)ncc1Cl [Compound I-33]', 'IC50', '101 to 1000 nM'),
  ('CN1CCN(c2ccc(Nc3ncc(Cl)c(Nc4ccsc4C(N)=O)n3)c(Cl)c2F)CC1 [Compound C-4, reference compound]', 'IC50', '101 to 1000 nM'),
  ('COc1c(Nc2ncc(Cl)c(Nc3ccsc3C(N)=O)n2)ccc(N2CCN(C)CC2)c1F [Compound C-2, reference compound]', 'IC50', '101 to 1000 nM'),
  ('CN1C2CCC1CN(c1ccc(Nc3ncc(Cl)c(Nc4ccsc4C(N)=O)n3)c(OC(F)F)c1)C2 [Compound I-30]', 'IC50', '101 to 1000 nM'),
  ('CN1CCN(C2CCN(c3ccc(Nc4ncc(Cl)c(N[C@@H]5CCC[C@@H]5C(N)=O)n4)c(OC(F)F)c3)CC2)CC1 [Compound I-83]', 'IC50', '101 to 1000 nM'),
  ('Cc1c(Nc2ncc(Cl)c(Nc3ccsc3C(N)=O)n2)ccc(N2CCN(C)CC2)c1F [Compound C-5, reference compound]', 'IC50', '101 to 1000 nM'),
  ('COc1cc(N2CCC(N3CCN(C)CC3)CC2)ccc1Nc1ncc(Cl)c(Nc2ccsc2C(N)=O)n1 [Compound C-3, reference compound]', 'IC50', '101 to 1000 nM'),
  ('CC(C)N1CCN(C2CCN(c3ccc(Nc4ncc(C(F)(F)F)c(Nc5ccsc5C(N)=O)n4)c(OC(F)F)c3)CC2)CC1 [Compound I-78]', 'IC50', '101 to 1000 nM'),
  ('CC(C)Oc1cc(N2CCN(C)CC2)ccc1Nc1ncc(Cl)c(N[C@@H]2CCCC[C@@H]2C(N)=O)n1 [Compound C-6, reference compound]', 'IC50', '> 1000 nM'),
  ('CCN1CCN(C2CCN(c3ccc(Nc4ncc(C(F)(F)F)c(Nc5ccsc5C(N)=O)n4)c(OC(F)F)c3)CC2)CC1 [Compound I-77]', 'IC50', '101 to 1000 nM'),
  ('CCN1CCN(c2ccc(Nc3ncc(Cl)c(Nc4ccsc4C(N)=O)n3)c(OC(F)F)c2)CC1 [Compound I-5]', 'IC50', '> 1000 nM'),
  ('C[C@@H]1CN(C2CCN(c3ccc(Nc4ncc(Cl)c(Nc5ccsc5C(N)=O)n4)c(OC(F)F)c3)CC2)C[C@H](C)N1C [Compound I-64]', 'IC50', '101 to 1000 nM'),
  ('CN1CCN(c2ccc(Nc3ncc(C(F)(F)F)c(Nc4ccsc4C(N)=O)n3)c(OC(F)F)c2)CC1 [Compound I-27]', 'IC50', '101 to 1000 nM'),
  ('C[C@H]1CN(c2ccc(Nc3ncc(Cl)c(Nc4ccsc4C(N)=O)n3)c(OC(F)F)c2)CCN1C [Compound I-21]', 'IC50', '11 to 100 nM');
